Molecular target: T1, human PD-L1 expressed on CHOK1 cells (PDL1-CHOK1 cell line) (human, UniProt Q9NZQ7 19-290)
T1 construct: whole, on cells; also called PDL1-CHOK1 cells; PD-L1 expressed on mammalian cells
T1 sequence (Q9NZQ7 19-290): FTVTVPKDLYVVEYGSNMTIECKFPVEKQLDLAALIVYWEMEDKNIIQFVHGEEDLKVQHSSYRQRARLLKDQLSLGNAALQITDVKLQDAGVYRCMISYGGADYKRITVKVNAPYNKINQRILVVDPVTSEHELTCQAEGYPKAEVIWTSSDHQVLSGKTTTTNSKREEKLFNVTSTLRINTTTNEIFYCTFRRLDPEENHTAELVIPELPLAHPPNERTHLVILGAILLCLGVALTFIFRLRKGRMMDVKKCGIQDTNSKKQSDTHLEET
Experiment: FACS receptor blocking: PDL1-CHOK1 cells, competitor Bio-PD1 (30 µg/ml)
Assignment: determine reported TOP for the given binders.
// units = %; emit number, no label

Query: TOP for Hu1210-16 (antibody, V domains shown) VH: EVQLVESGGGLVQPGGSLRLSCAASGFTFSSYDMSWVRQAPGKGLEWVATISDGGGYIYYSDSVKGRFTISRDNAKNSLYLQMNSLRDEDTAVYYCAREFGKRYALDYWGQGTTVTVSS VL: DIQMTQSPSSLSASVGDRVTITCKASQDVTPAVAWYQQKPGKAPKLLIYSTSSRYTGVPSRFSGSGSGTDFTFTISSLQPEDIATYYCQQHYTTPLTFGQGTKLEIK ?
Response: 88

Query: Input Hu1210-36 (antibody, V domains shown) VH: EVQLVESGGGLVQPGGSLRLSCAASGFTFSSYDMSWVRQTPEKSLEWVATISDGGGYIYYSDSVKGRFTISRDNAKNNLYLQMNSLRAEDTAVYICAREFGKRYALDYWGQGTLVTVSS VL: DIQMTQSPSSLSASVGDRVTITCKASQDVTPAVAWYQQKPGKAPKLLIYSTSSRYTGVPSRFSGSGSGTDFTLTISSLQPEDFATYYCQQHYTTPLTFGQGTKLEIKR
Response: 91.8

Query: Input Hu1210-19 (antibody, V domains shown) VH: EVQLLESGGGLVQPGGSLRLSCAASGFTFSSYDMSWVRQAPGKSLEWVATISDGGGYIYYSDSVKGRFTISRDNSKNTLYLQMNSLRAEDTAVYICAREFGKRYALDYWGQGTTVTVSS VL: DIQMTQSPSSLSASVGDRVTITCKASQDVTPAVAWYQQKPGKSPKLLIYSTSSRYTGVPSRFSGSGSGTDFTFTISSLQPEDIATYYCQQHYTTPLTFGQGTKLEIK
Response: 87.5
